# Tested on: HDAC1 enzyme (Homo sapiens, UniProt Q13547)
# Construct: prepared by transducing full length HDAC1 and HDAC6 genes into Sf-9 insect cells; GST; purchased SignalChem; host or cells: Sf-9 insect cells
# Sequence (Q13547 whole entry): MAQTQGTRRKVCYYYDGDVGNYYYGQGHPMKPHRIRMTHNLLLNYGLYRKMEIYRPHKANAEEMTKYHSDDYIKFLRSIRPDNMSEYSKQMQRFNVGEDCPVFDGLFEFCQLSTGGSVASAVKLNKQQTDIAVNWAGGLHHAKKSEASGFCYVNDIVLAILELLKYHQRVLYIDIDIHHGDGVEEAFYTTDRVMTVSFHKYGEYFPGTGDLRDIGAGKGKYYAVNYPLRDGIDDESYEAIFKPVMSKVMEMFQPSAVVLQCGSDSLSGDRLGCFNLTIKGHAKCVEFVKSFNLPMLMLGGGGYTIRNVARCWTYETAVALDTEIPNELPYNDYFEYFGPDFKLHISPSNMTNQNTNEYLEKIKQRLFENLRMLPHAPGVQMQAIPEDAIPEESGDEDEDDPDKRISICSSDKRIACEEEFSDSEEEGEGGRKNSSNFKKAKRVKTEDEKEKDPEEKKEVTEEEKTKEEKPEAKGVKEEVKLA
# Protocol summary: HDAC1 enzyme inhibitory assay (HDAC-Glo I/II Assay kit)
# Format: biochemical
# Settings: 1 μM test compound; read-out: HDAC1 inhibitory rate (%) (1 μM)
Property name: inhibition at 1 µM (%)

Compound: O=C(NC[C@H]1COCCN1C(=O)c1cc(F)cc(F)c1)c1ccc(-c2noc(C(F)(F)F)n2)cc1
Tested on: HDAC1 enzyme (Homo sapiens, UniProt Q13547)
Property name: inhibition at 1 µM
Measured value: 18

Compound: O=C(NC[C@H]1COCCN1C(=O)N1C2CCC1COC2)c1ccc(-c2noc(C(F)(F)F)n2)cc1
Tested on: HDAC1 enzyme (Homo sapiens, UniProt Q13547)
Property name: inhibition at 1 µM
Measured value: 10

Compound: O=C(NC[C@H]1COCCN1C(=O)C1(c2ccccc2)CC1)c1ccc(-c2noc(C(F)(F)F)n2)cc1
Tested on: HDAC1 enzyme (Homo sapiens, UniProt Q13547)
Property name: inhibition at 1 µM
Measured value: 16

Compound: O=C(NCC1COCCN1C(=O)CCc1ccccc1)c1ccc(-c2noc(C(F)(F)F)n2)cc1 (stereo not drawn)
Tested on: HDAC1 enzyme (Homo sapiens, UniProt Q13547)
Property name: inhibition at 1 µM
Measured value: 23

Compound: Cn1cc2c(C(=O)N3CCOC[C@@H]3CNC(=O)c3ccc(-c4noc(C(F)(F)F)n4)cc3)cccc2n1
Tested on: HDAC1 enzyme (Homo sapiens, UniProt Q13547)
Property name: inhibition at 1 µM
Measured value: 15

Compound: Cn1nc(C(F)(F)F)cc1C(=O)N1CCOC[C@@H]1CNC(=O)c1ccc(-c2noc(C(F)(F)F)n2)cc1
Tested on: HDAC1 enzyme (Homo sapiens, UniProt Q13547)
Property name: inhibition at 1 µM
Measured value: 17
